Target: S29A PncC (Escherichia coli, UniProt P0A6G3, S29A)
Construct: made in house; host or cells: E. coli BL21(DE3)
Sequence (P0A6G3 whole entry S29A): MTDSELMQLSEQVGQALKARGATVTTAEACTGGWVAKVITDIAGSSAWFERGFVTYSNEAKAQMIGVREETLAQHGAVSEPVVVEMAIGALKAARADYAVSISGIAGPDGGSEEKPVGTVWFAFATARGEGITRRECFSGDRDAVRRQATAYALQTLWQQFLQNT
Type: binding, E. coli
Details: nucleotide 0.185 µM
Items are presented alongside their recorded S29A PncC fluorescence quenching (%) vs buffer.

molecule	target	meas value
O=C(O)c1ccc[n+]([C@@H]2O[C@H](COP(=O)([O-])O)[C@@H](O)[C@H]2O)c1 [NaMN, nicotinic acid mononucleotide]	S29A PncC (Escherichia coli, UniProt P0A6G3, S29A)	1.79%

# S29A PncC fluorescence quenching (%) vs buffer (molecule: NC(=O)c1ccc[n+]([C@@H]2O[C@H](COP(=O)([O-])OP(=O)(O)OC[C@H]3O[C@@H](n4cnc5c(N)ncnc54)[C@H](O)[C@@H]3O)[C@@H](O)[C@H]2O)c1 [NAD, nicotinamide adenine dinucleotide] ) is 0.52%

# S29A PncC fluorescence quenching (%) vs buffer (molecule: O=C(O)c1cccnc1 [Na, nicotinic acid] ) is 0%

# S29A PncC fluorescence quenching (%) vs buffer (molecule: NC(=O)c1ccc[n+]([C@@H]2O[C@H](CO)[C@@H](O)[C@H]2O)c1 [NR, nicotinamide riboside] ) is 0%

# S29A PncC fluorescence quenching (%) vs buffer (molecule: NC(=O)c1cccnc1 [Nam, nicotinamide] ) is 0.08%

# S29A PncC fluorescence quenching (%) vs buffer (molecule: Nc1ncnc2c1ncn2[C@@H]1O[C@H](COP(=O)(O)OP(=O)([O-])OC[C@H]2O[C@@H]([n+]3cccc(C(=O)O)c3)[C@H](O)[C@@H]2O)[C@@H](O)[C@H]1O [NaAD, nicotinic acid adenine dinucleotide] ) is 0%

# S29A PncC fluorescence quenching (%) vs buffer (molecule: NC(=O)c1ccc[n+]([C@@H]2O[C@H](COP(=O)(O)OP(=O)([O-])OC[C@H]3O[C@@H](n4cnc5c(N)ncnc54)[C@H](OP(=O)(O)O)[C@@H]3O)[C@@H](O)[C@H]2O)c1 [NADP] ) is 0%

# S29A PncC fluorescence quenching (%) vs buffer (molecule: NC(=O)c1ccc[n+]([C@@H]2O[C@H](COP(=O)([O-])O)[C@@H](O)[C@H]2O)c1 [NMN, nicotinamide mononucleotide] ) is 0.48%
